# Species on record: Rattus norvegicus
# assay.explanation: Selectivity ratio of Ki for delta opioid receptor to Ki for mu opioid receptor in rat brain membrane
# Type: cell membranes
measurement.name: Ratio Ki

structure.as.smiles: CNC(=O)[C@H](Cc1ccccc1)NC(=O)[C@H](Cc1ccccc1)NC(=O)[C@@H]1CCCN1C(=O)[C@@H](N)Cc1ccc(O)cc1
result: 290
//
structure.as.smiles: CN(C)C(=O)[C@H](Cc1ccccc1)NC(=O)[C@H](Cc1ccccc1)NC(=O)[C@@H]1CCCN1C(=O)[C@@H](N)Cc1ccc(O)cc1
result: > 36.7
//
structure.as.smiles: CCOC(=O)[C@H](Cc1ccccc1)NC(=O)[C@H](Cc1ccccc1)NC(=O)[C@@H]1CCCN1C(=O)[C@@H](N)Cc1ccc(O)cc1
result: 196

Fill in the blank: the reported Ratio Ki of CC(C)(C)OC(=O)[C@H](Cc1ccccc1)NC(=O)[C@H](Cc1ccccc1)NC(=O)[C@@H]1CCCN1C(=O)[C@@H](N)Cc1ccc(O)cc1 is ____. 4.9

---

# subject.of.test: Delta-type opioid receptor (Mus musculus, UniProt P32300)
# Sequence (P32300 whole entry): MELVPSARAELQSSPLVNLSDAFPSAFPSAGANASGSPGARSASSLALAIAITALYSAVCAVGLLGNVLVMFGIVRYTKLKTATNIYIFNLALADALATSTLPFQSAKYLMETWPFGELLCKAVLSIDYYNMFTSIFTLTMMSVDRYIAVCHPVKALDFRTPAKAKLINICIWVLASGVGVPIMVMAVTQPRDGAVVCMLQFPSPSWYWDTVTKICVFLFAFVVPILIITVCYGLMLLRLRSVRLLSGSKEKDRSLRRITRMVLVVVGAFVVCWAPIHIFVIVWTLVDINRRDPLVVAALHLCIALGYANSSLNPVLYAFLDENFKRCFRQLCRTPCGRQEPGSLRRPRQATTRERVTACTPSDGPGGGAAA
# assay.explanation: Agonist activity at delta opioid receptor in mouse vas deferens assessed as inhibition of electrically-stimulated contraction
# Format: functional, tissue-based
Flag rule - IC50 less than 50 nM flags true; the remaining entries get false.

structure.as.smiles: N[C@@H](Cc1ccc(O)cc1)C(=O)N1CCC[C@H]1C(=O)N[C@@H](Cc1ccccc1)C(=O)N[C@H](CO)Cc1ccccc1
classification: true

Then this molecule:
Please check: IC50 for CC(C)(C)OC(=O)[C@H](Cc1ccccc1)NC(=O)[C@H](Cc1ccccc1)NC(=O)[C@@H]1CCCN1C(=O)[C@@H](N)Cc1ccc(O)cc1 , strictly under 50 nM or not? false

---

List of Ki tested on Mu-type opioid receptor (Rattus norvegicus, UniProt P33535).
Sequence (P33535 whole entry): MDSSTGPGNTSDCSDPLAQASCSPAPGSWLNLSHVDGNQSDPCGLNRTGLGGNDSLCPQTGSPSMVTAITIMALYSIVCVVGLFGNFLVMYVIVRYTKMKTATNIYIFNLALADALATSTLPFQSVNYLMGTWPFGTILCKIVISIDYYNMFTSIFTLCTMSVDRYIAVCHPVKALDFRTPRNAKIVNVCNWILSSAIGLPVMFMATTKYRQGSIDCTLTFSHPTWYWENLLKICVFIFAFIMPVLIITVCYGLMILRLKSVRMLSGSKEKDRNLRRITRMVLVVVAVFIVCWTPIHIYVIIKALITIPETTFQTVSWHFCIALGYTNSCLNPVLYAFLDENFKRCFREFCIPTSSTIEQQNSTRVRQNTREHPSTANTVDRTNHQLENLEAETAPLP
Unit nM implied. Number only.

structure.as.smiles: CC(C)(C)OC(=O)[C@H](Cc1ccccc1)NC(=O)[C@H](Cc1ccccc1)NC(=O)[C@@H]1CCCN1C(=O)[C@@H](N)Cc1ccc(O)cc1
subject.of.test: Mu-type opioid receptor (Rattus norvegicus, UniProt P33535)
unit.string: nM
Ki: 50.3
//
structure.as.smiles: CNC(=O)[C@H](Cc1ccccc1)NC(=O)[C@H](Cc1ccccc1)NC(=O)[C@@H]1CCCN1C(=O)[C@@H](N)Cc1ccc(O)cc1
subject.of.test: Mu-type opioid receptor (Rattus norvegicus, UniProt P33535)
unit.string: nM
Ki: 29.2
//
structure.as.smiles: COC(=O)[C@H](Cc1ccccc1)NC(=O)[C@H](Cc1ccccc1)NC(=O)[C@@H]1CCCN1C(=O)[C@@H](N)Cc1ccc(O)cc1
subject.of.test: Mu-type opioid receptor (Rattus norvegicus, UniProt P33535)
unit.string: nM
Ki: 9.07

With those in mind, consider the next compound.
Item: N[C@@H](Cc1ccc(O)cc1)C(=O)N1CCC[C@H]1C(=O)N[C@@H](Cc1ccccc1)C(=O)N[C@H](CO)Cc1ccccc1 Test system: Mu-type opioid receptor (Rattus norvegicus, UniProt P33535) Read-out: Ki Value: ? 6.34

---

# subject.of.test: Mu-opioid receptor (Cavia porcellus, UniProt Q8CGM4)
# Sequence (Q8CGM4 whole entry): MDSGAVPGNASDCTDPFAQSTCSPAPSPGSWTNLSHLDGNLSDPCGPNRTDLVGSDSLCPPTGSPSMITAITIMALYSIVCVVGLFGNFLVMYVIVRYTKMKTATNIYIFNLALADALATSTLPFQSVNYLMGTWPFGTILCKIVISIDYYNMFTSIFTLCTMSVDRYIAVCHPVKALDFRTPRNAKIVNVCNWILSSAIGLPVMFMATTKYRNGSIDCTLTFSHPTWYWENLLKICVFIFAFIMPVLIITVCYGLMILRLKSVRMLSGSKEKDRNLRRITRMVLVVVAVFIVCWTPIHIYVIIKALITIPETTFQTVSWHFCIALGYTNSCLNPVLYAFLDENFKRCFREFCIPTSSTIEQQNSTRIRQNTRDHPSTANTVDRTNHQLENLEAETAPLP
# assay.explanation: Agonist activity at mu opioid receptor in guinea pig ileum assessed as inhibition of electrically-stimulated contraction
The reader will find reported pIC50 values listed item by item below.
Remember the convention: pIC50 equals -log10 of concentration in molar.

Known results for molecules:
structure.as.smiles: CC(C)(C)OC(=O)[C@H](Cc1ccccc1)NC(=O)[C@H](Cc1ccccc1)NC(=O)[C@@H]1CCCN1C(=O)[C@@H](N)Cc1ccc(O)cc1
pIC50: 5.52
--
structure.as.smiles: N[C@@H](Cc1ccc(O)cc1)C(=O)N1CCC[C@H]1C(=O)N[C@@H](Cc1ccccc1)C(=O)N[C@H](CO)Cc1ccccc1
pIC50: 7.53
--
structure.as.smiles: CCOC(=O)[C@H](Cc1ccccc1)NC(=O)[C@H](Cc1ccccc1)NC(=O)[C@@H]1CCCN1C(=O)[C@@H](N)Cc1ccc(O)cc1
pIC50: 7.19
--
structure.as.smiles: CNC(=O)[C@H](Cc1ccccc1)NC(=O)[C@H](Cc1ccccc1)NC(=O)[C@@H]1CCCN1C(=O)[C@@H](N)Cc1ccc(O)cc1
pIC50: 6.87
--
structure.as.smiles: COC(=O)[C@H](Cc1ccccc1)NC(=O)[C@H](Cc1ccccc1)NC(=O)[C@@H]1CCCN1C(=O)[C@@H](N)Cc1ccc(O)cc1
pIC50: 7.38

Item: CN(C)C(=O)[C@H](Cc1ccccc1)NC(=O)[C@H](Cc1ccccc1)NC(=O)[C@@H]1CCCN1C(=O)[C@@H](N)Cc1ccc(O)cc1 Test system: Mu-opioid receptor (Cavia porcellus, UniProt Q8CGM4) Read-out: pIC50 Value: ? 5.74

Form field - read-out: pIC50; system: Mu-opioid receptor (Cavia porcellus, UniProt Q8CGM4); submitted item: NNC(=O)[C@H](Cc1ccccc1)NC(=O)[C@H](Cc1ccccc1)NC(=O)[C@@H]1CCCN1C(=O)[C@@H](N)Cc1ccc(O)cc1 6.88

---

Quick record of pKi values for Mu-type opioid receptor (Rattus norvegicus).
Notebook: values listed as pKi are -log10 of the concentration (mol/L).

Report pKi for CCOC(=O)[C@H](Cc1ccccc1)NC(=O)[C@H](Cc1ccccc1)NC(=O)[C@@H]1CCCN1C(=O)[C@@H](N)Cc1ccc(O)cc1 please. 7.83

Give its pKi value. Item: CN(C)C(=O)[C@H](Cc1ccccc1)NC(=O)[C@H](Cc1ccccc1)NC(=O)[C@@H]1CCCN1C(=O)[C@@H](N)Cc1ccc(O)cc1 6.56

// query pKi value for entry NNC(=O)[C@H](Cc1ccccc1)NC(=O)[C@H](Cc1ccccc1)NC(=O)[C@@H]1CCCN1C(=O)[C@@H](N)Cc1ccc(O)cc1 8.03

---

# assay.explanation: Selectivity ratio of IC50 for guinea pig ileum to IC50 for mouse vas deferens assay
# Format: tissue-based
Consider the following compounds and their measured IC50 ratio (guinea pig ileum / mouse vas deferens) readings.
Give the figure only, with no unit attached.

Answered cases to consult:
structure.as.smiles: NNC(=O)[C@H](Cc1ccccc1)NC(=O)[C@H](Cc1ccccc1)NC(=O)[C@@H]1CCCN1C(=O)[C@@H](N)Cc1ccc(O)cc1
numeric.readout: 0.71
--
structure.as.smiles: COC(=O)[C@H](Cc1ccccc1)NC(=O)[C@H](Cc1ccccc1)NC(=O)[C@@H]1CCCN1C(=O)[C@@H](N)Cc1ccc(O)cc1
numeric.readout: 1.1
--
structure.as.smiles: CNC(=O)[C@H](Cc1ccccc1)NC(=O)[C@H](Cc1ccccc1)NC(=O)[C@@H]1CCCN1C(=O)[C@@H](N)Cc1ccc(O)cc1
numeric.readout: 2.5

Recorded IC50 ratio (guinea pig ileum / mouse vas deferens) for CN(C)C(=O)[C@H](Cc1ccccc1)NC(=O)[C@H](Cc1ccccc1)NC(=O)[C@@H]1CCCN1C(=O)[C@@H](N)Cc1ccc(O)cc1 , please? 0.66

Query (compound): CCOC(=O)[C@H](Cc1ccccc1)NC(=O)[C@H](Cc1ccccc1)NC(=O)[C@@H]1CCCN1C(=O)[C@@H](N)Cc1ccc(O)cc1 ; field requested: IC50 ratio (guinea pig ileum / mouse vas deferens) 1

Requested field: IC50 ratio (guinea pig ileum / mouse vas deferens). Item: CC(C)(C)OC(=O)[C@H](Cc1ccccc1)NC(=O)[C@H](Cc1ccccc1)NC(=O)[C@@H]1CCCN1C(=O)[C@@H](N)Cc1ccc(O)cc1 40.5

Give its IC50 ratio (guinea pig ileum / mouse vas deferens) value. Item: N[C@@H](Cc1ccc(O)cc1)C(=O)N1CCC[C@H]1C(=O)N[C@@H](Cc1ccccc1)C(=O)N[C@H](CO)Cc1ccccc1 1

---

# subject.of.test: Delta-type opioid receptor (Rattus norvegicus, UniProt P33533)
# Sequence (P33533 whole entry): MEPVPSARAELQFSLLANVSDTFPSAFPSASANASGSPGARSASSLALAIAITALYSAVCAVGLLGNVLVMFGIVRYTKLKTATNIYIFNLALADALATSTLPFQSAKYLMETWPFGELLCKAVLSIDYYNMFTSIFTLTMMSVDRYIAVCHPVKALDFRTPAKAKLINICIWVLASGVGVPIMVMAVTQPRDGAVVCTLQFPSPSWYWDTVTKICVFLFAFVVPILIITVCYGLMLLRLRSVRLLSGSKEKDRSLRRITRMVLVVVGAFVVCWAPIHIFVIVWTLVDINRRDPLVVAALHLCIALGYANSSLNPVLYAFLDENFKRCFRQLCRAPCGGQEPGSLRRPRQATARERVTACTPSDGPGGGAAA
# assay.explanation: Displacement of [3H]DPDPE from delta opioid receptor in rat brain membrane
Listed here are compounds together with their documented pKi.
// field semantics: pKi = negative decimal log of concentration (mol/L)

Solved cases below.
structure.as.smiles: CCOC(=O)[C@H](Cc1ccccc1)NC(=O)[C@H](Cc1ccccc1)NC(=O)[C@@H]1CCCN1C(=O)[C@@H](N)Cc1ccc(O)cc1
pKi: 5.53
--
structure.as.smiles: CNC(=O)[C@H](Cc1ccccc1)NC(=O)[C@H](Cc1ccccc1)NC(=O)[C@@H]1CCCN1C(=O)[C@@H](N)Cc1ccc(O)cc1
pKi: 5.07

Next compound, pKi to be filled in.
Which pKi is reported for this compound? CC(C)(C)OC(=O)[C@H](Cc1ccccc1)NC(=O)[C@H](Cc1ccccc1)NC(=O)[C@@H]1CCCN1C(=O)[C@@H](N)Cc1ccc(O)cc1 6.61

---

# Organism: Rattus norvegicus
# assay.explanation: Selectivity ratio of Ki for delta opioid receptor to Ki for mu opioid receptor in rat brain membrane
# Assay type: cell membranes
measurement.name: Ratio Ki

Examples with answers:
structure.as.smiles: NNC(=O)[C@H](Cc1ccccc1)NC(=O)[C@H](Cc1ccccc1)NC(=O)[C@@H]1CCCN1C(=O)[C@@H](N)Cc1ccc(O)cc1
Ratio Ki: > 1070
--
structure.as.smiles: N[C@@H](Cc1ccc(O)cc1)C(=O)N1CCC[C@H]1C(=O)N[C@@H](Cc1ccccc1)C(=O)N[C@H](CO)Cc1ccccc1
Ratio Ki: > 1580

Next compound, please.
Can you share its Ratio Ki? I mean this compound: COC(=O)[C@H](Cc1ccccc1)NC(=O)[C@H](Cc1ccccc1)NC(=O)[C@@H]1CCCN1C(=O)[C@@H](N)Cc1ccc(O)cc1 > 1100
